Data origin, for the record: patent US12692262B2

Target: human OX2R (Homo sapiens, UniProt O43614)
Construct: expressed in transfected cells; host or cells: CHO (Chinese hamster ovary) cells grown under G418 selection
Sequence (O43614 1-444): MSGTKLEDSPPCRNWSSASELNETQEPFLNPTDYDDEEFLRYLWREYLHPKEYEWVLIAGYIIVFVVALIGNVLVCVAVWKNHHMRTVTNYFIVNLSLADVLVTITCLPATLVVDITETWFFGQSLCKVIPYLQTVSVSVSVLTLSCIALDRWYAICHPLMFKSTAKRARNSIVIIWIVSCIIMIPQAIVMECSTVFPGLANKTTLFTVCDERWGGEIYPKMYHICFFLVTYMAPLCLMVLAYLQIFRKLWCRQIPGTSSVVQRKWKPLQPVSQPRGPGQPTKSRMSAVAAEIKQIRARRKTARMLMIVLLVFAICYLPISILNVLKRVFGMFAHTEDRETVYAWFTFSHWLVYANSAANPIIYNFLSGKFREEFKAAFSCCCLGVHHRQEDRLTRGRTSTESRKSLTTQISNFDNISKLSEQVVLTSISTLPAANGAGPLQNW
Assay: IPOne (IP-1 accumulation) assay in CHO cells expressing human OX2R
Assay type: cell-based
Conditions: percent effect vs mean max effect of a reference compound at 1 uM (100% activity vs Orexin A), human OX2R
reported endpoint: % of maximum agonist effect (relative to Orexin A) (%)

# input Find % of maximum agonist effect (relative to Orexin A) (human OX2R (Homo sapiens, UniProt O43614)) for the entry CC[C@H](CCC(F)(F)F)NC(=O)N(CC)[C@H](C)c1ccc(OC)c(-c2cc(C)c3nccn3c2)c1
# output 96.6

# input How about CCN(C(=O)N[C@@H](CCC(F)(F)F)C(F)(F)F)[C@@H](c1cc(-c2cc3scnc3c(OC)n2)c(OC)cn1)C(F)(F)F ?
# output 100.7

# input How about CCN(C(=O)N[C@@H](CCC(F)(F)F)C(F)(F)F)C(C)c1cc(-c2cc(F)c3nccn3c2)c(Cl)cn1 (single isomer, unassigned) ?
# output 100.5

# input How about CCOC(=O)CC(NC(=O)N(CC)[C@H](C)c1cccc(-c2cn3ccnc3c(OC)n2)c1)C(F)(F)F (some centres unmarked) ?
# output 98.0

# input How about CCN(C(=O)NC1CC1)[C@@H](c1cc(-c2cn3ccnc3c(OC)n2)c(OC)cn1)C(F)(F)F ?
# output 101.0

# input How about CCN(C(=O)NC(C1CCC1)C(F)(F)F)[C@@H](c1cc(-c2cn3ccnc3c(OC)n2)c(OC)cn1)C(F)(F)F (some centres unmarked) ?
# output 100.7

# input How about CCN(C(=O)NC(Cn1ccnn1)C(F)(F)F)[C@H](C)c1cccc(-c2cn3ccnc3c(OC)n2)c1 (some centres unmarked) ?
# output 98.7

# input How about CCN(C(=O)NC1CC(C(F)(F)F)C1)[C@@H](c1cc(-c2cn3ccnc3c(OC)n2)c(OC)cn1)C(F)(F)F (some centres unmarked) ?
# output 99.7

# input How about CCN(C(=O)N[C@@H](CCC(F)(F)F)C(F)(F)F)[C@H](C)c1cc(-c2cc(OC)c3ncoc3c2)c(OC)cn1 ?
# output 99.6

# input How about CCN(C(=O)N[C@@H](CCC(F)(F)F)C(F)(F)F)[C@@H](c1cc(-c2cc(OC)n3nccc3n2)c(OC)cn1)C(F)(F)F ?
# output 99.5

# input How about CCN(C(=O)N[C@@H](CCC(F)(F)F)C(F)(F)F)[C@H](C)c1cccc(-c2cc(OC)c3ncc(Cl)n3c2)c1 ?
# output 99.7

# input How about CCN(C(=O)N[C@@H](CCC(F)(F)F)C(F)(F)F)C(C)c1cc(-c2cn3ccnc3c(OC)n2)ncn1 (some centres unmarked) ?
# output 101.4

# input How about CCN(C(=O)N[C@@H](C1CCCC(F)(F)C1)C(F)(F)F)[C@H](C)c1cccc(-c2cn3ccnc3c(OC)n2)c1 (single isomer, unassigned) ?
# output 100.8

# input How about CCN(C(=O)N[C@@H](CCC(F)(F)F)C(F)(F)F)C(c1cc(-c2cn3c(C#N)cnc3c(OC)n2)c(OC)cn1)C(F)(F)F (some centres unmarked) ?
# output 100.5

# input How about CCC(CCC(F)(F)F)NC(=O)N(CC)[C@H](C)c1cccc(-c2cnc3nccn3c2)c1 (some centres unmarked) ?
# output 99.3

# input How about CCN(C(=O)N[C@@H](CCC(F)F)C(F)F)[C@@H](c1cc(-c2cn3cc(C)nc3c(OC)n2)c(OC)cn1)C(F)(F)F ?
# output 99.9

# input How about CCN(C(=O)N[C@@H](CCC#N)C(F)(F)F)[C@@H](c1cc(-c2cn3ccnc3c(OC)n2)c(OC)cn1)C(F)(F)F ?
# output 102.3

# input How about CCN(C(=O)N[C@@H](CCC(F)(F)F)C(F)(F)F)[C@@H](c1ccc(OC)c(-c2ccc3nccn3c2)c1)C(F)(F)F ?
# output 100.8

# input How about CC[C@H](CCC(F)(F)F)NC(=O)N(CC)[C@H](C)c1cccc(-c2cn3ccnc3c(SC)n2)c1 ?
# output 96.1

# input How about CCN(C(=O)NC1CC1(F)F)[C@@H](c1cc(-c2cn3ccnc3c(OC)n2)c(OC)cn1)C(F)(F)F (some centres unmarked) ?
# output 101.7

# input How about CCN(C(=O)N[C@@H](CCC(F)(F)F)C(F)F)[C@@H](c1cc(-c2cn3cc(C)nc3c(OC)n2)c(OC)cn1)C(F)(F)F ?
# output 101.6

# input How about CCN(C(=O)NC(C#N)C1CCCC1)[C@H](C)c1cccc(-c2cn3ccnc3c(OC)n2)c1 (some centres unmarked) ?
# output 101.0

# input How about CC[C@H](CCC(F)(F)F)NC(=O)N(CC)[C@H](C)c1cccc(-c2cc(Cl)n3nccc3c2)c1 ?
# output 93.7

# input How about CCN(C(=O)NC1CCC1C(F)(F)F)[C@@H](c1cc(-c2cn3ccnc3c(OC)n2)c(OC)cn1)C(F)(F)F (some centres unmarked) ?
# output 100.0

# input How about CC[C@H](CCC(F)(F)F)NC(=O)N(CC(F)F)C(c1cc(-c2cn3ncnc3c(OC)n2)c(OC)cn1)C(F)(F)F (some centres unmarked) ?
# output 99.7

# input How about CCC(/C=C/C(F)(F)F)NC(=O)N(CC)[C@@H](c1cc(-c2cn3cc(C)nc3c(OC)n2)c(OC)cn1)C(F)(F)F (some centres unmarked) ?
# output 100.0
